subjectOfTest: OR10G3 (Homo sapiens) (UniProt Q8NGC4)
Sequence (Q8NGC4 whole entry): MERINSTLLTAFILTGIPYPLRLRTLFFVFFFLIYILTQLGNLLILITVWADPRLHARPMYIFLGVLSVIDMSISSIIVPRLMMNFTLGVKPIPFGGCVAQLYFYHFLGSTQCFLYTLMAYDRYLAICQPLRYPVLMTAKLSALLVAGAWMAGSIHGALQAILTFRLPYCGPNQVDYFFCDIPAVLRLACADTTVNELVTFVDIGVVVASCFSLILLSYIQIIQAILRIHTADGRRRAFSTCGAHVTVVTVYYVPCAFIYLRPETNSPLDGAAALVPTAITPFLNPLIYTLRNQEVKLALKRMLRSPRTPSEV
testConditions: stereoisomer not certain
quantityName: odorant receptor agonist call

| compound | subjectOfTest | val |
| --- | --- | --- |
| CCC(S)C(C)CO (stereo not given) | OR10G3 (Homo sapiens) (UniProt Q8NGC4) | inactive |
| CC(CO)CS (stereo not given) | OR10G3 (Homo sapiens) (UniProt Q8NGC4) | inactive |
| CCCCCC(S)C(C)CO (stereo not given) | OR10G3 (Homo sapiens) (UniProt Q8NGC4) | inactive |
| CCCCCCC=CCCC=O | OR10G3 (Homo sapiens) (UniProt Q8NGC4) | inactive |
| CC(=O)c1c(C)c([N+](=O)[O-])c(C(C)(C)C)c([N+](=O)[O-])c1C | OR10G3 (Homo sapiens) (UniProt Q8NGC4) | inactive |
| Cc1cnc(C)c(C)n1 | OR10G3 (Homo sapiens) (UniProt Q8NGC4) | inactive |
| CCCCC(S)C(C)CO (stereo not given) | OR10G3 (Homo sapiens) (UniProt Q8NGC4) | inactive |
| CC1CCCCCCCCCCCCC(=O)C1 (stereo not given) | OR10G3 (Homo sapiens) (UniProt Q8NGC4) | inactive |
| CCC1OC(=O)C(O)=C1C (stereo not given) | OR10G3 (Homo sapiens) (UniProt Q8NGC4) | inactive |
| CC1=NC(C)C(C)S1 (stereo not given) | OR10G3 (Homo sapiens) (UniProt Q8NGC4) | inactive |

---

subjectOfTest: OR4C45 (Homo sapiens) (UniProt A6NMZ5)
Sequence (whole entry): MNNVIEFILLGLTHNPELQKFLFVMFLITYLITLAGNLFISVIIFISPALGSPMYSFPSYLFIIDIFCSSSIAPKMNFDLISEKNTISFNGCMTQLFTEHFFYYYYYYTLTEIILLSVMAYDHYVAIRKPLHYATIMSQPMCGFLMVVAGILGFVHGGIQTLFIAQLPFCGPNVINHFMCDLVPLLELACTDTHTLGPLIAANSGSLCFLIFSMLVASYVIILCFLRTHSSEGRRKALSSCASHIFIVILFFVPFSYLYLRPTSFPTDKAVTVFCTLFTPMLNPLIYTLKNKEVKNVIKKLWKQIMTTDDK
testConditions: stereoisomer not certain
quantityName: odorant receptor agonist call

| molecule | val |
| --- | --- |
| CC1CCCCCCCCCCCCC(=O)C1 (stereo not given) | inactive |
| CCCCCC(S)C(C)CO (stereo not given) | inactive |
| CCCCC(S)C(C)CO (stereo not given) | inactive |
| CCCCCCC=CCCC=O | inactive |
| CCCCCC(=O)C(C)C(C)=O (stereo not given) | inactive |

---

subjectOfTest: OR2T10 (Homo sapiens) (UniProt Q8NGZ9)
Sequence (Q8NGZ9 whole entry): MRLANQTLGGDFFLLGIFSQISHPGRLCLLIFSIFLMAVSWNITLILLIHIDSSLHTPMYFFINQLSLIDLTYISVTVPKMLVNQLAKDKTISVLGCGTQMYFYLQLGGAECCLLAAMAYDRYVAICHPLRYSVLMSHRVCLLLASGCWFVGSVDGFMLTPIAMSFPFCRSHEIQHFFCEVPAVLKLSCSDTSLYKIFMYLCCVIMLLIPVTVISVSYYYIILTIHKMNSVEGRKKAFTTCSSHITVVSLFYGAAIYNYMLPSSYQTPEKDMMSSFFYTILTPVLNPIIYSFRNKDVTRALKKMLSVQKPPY
testConditions: stereoisomer not certain
Outcome codes: active, inactive

| molecule | subjectOfTest | labelValue |
| --- | --- | --- |
| CC1CCCCCCCCCCCCC(=O)C1 (centres undefined) | OR2T10 (Homo sapiens) (UniProt Q8NGZ9) | inactive |
| CC(CO)CS (centres undefined) | OR2T10 (Homo sapiens) (UniProt Q8NGZ9) | inactive |
| CCC(S)C(C)CO (centres undefined) | OR2T10 (Homo sapiens) (UniProt Q8NGZ9) | inactive |
| CC(C)=CCCC(C)CC=O (centres undefined) | OR2T10 (Homo sapiens) (UniProt Q8NGZ9) | inactive |
| CCC=C(C)C(O)CCCCC (centres undefined) | OR2T10 (Homo sapiens) (UniProt Q8NGZ9) | inactive |
| COc1ccc(C)cc1 | OR2T10 (Homo sapiens) (UniProt Q8NGZ9) | inactive |
| Cc1occc(=O)c1OC(=O)C(C)C | OR2T10 (Homo sapiens) (UniProt Q8NGZ9) | active |
| CCCCCC1COCCC1OC(C)=O (centres undefined) | OR2T10 (Homo sapiens) (UniProt Q8NGZ9) | inactive |
| CCCCCC(S)C(C)CO (centres undefined) | OR2T10 (Homo sapiens) (UniProt Q8NGZ9) | inactive |
| CCCCC1CCC(=O)O1 (centres undefined) | OR2T10 (Homo sapiens) (UniProt Q8NGZ9) | inactive |
| CCCC(C)C(=O)OCC (centres undefined) | OR2T10 (Homo sapiens) (UniProt Q8NGZ9) | inactive |
| Cc1cnc(C)c(C)n1 | OR2T10 (Homo sapiens) (UniProt Q8NGZ9) | inactive |
| Cc1ccc(C(C)C)cc1O | OR2T10 (Homo sapiens) (UniProt Q8NGZ9) | inactive |
| CC1CC(C)(c2ccccc2)CO1 (centres undefined) | OR2T10 (Homo sapiens) (UniProt Q8NGZ9) | inactive |
| CC(C)CCCC(C)(C)O | OR2T10 (Homo sapiens) (UniProt Q8NGZ9) | inactive |
| CCC1OC(C)=C(O)C1=O (centres undefined) | OR2T10 (Homo sapiens) (UniProt Q8NGZ9) | inactive |
| CC1=C(O)C(=O)C(C)O1 (centres undefined) | OR2T10 (Homo sapiens) (UniProt Q8NGZ9) | inactive |
| CC1=NC(C)C(C)S1 (centres undefined) | OR2T10 (Homo sapiens) (UniProt Q8NGZ9) | inactive |
| C=CC(C)(CCC=C(C)C)OC(C)=O (centres undefined) | OR2T10 (Homo sapiens) (UniProt Q8NGZ9) | inactive |
| CC(CC=O)c1ccc(C(C)(C)C)cc1 (centres undefined) | OR2T10 (Homo sapiens) (UniProt Q8NGZ9) | inactive |
| CCCCCCC=CCCC=O | OR2T10 (Homo sapiens) (UniProt Q8NGZ9) | inactive |
| OCc1ccccc1 | OR2T10 (Homo sapiens) (UniProt Q8NGZ9) | inactive |
| CCCCCC(=O)C(C)C(C)=O (centres undefined) | OR2T10 (Homo sapiens) (UniProt Q8NGZ9) | inactive |
| CCOC(=O)CC1(C)OCCO1 | OR2T10 (Homo sapiens) (UniProt Q8NGZ9) | inactive |

---

subjectOfTest: OR5AK2 (Homo sapiens)
Sequence (whole entry): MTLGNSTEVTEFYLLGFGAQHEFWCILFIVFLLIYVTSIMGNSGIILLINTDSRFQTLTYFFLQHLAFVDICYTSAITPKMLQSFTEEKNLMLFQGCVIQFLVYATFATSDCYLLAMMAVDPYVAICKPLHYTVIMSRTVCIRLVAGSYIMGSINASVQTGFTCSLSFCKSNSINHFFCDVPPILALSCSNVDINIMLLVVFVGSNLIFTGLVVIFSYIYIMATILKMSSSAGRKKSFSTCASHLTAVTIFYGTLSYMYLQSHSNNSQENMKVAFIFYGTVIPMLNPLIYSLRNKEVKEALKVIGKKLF
testConditions: stereoisomer not certain

| molecule | odorant receptor agonist call |
| --- | --- |
| CC1=NC(C)C(C)S1 (stereo unspecified) | inactive |
| CC1CCCCCCCCCCCCC(=O)C1 (stereo unspecified) | inactive |
| CCC1OC(C)=C(O)C1=O (stereo unspecified) | inactive |
| CCC1OC(=O)C(O)=C1C (stereo unspecified) | inactive |
| CCCCCC(=O)C(C)C(C)=O (stereo unspecified) | inactive |
| CCC(S)C(C)CO (stereo unspecified) | inactive |

---

subjectOfTest: OR1A1 (Homo sapiens)
testConditions: stereoisomer not certain
Possible outcomes: active, inactive

| compound | labelValue |
| --- | --- |
| CCCCC(CC)CCC(=O)O (stereo unspecified) | inactive |
| CSC | inactive |
| CCC(C(=O)O)c1ccccc1 (stereo unspecified) | inactive |
| COc1ccc2ccc(=O)oc2c1 | inactive |
| Cc1occc1S | inactive |
| CCCCCCC1CCC(=O)O1 (stereo unspecified) | inactive |
| CC(C)=CCCC(C)CC=O (stereo unspecified) | active |
| CC=Cc1ccc(OC)cc1 | active |
| CCCCCC=O | inactive |
| CCCCC(=O)CC | active |
| COc1nccnc1CC(C)C | inactive |
| C=CC(C)(O)CCC=C(C)CCC=C(C)C (stereo unspecified) | active |
| CC1(C)C2CC=C(C=O)C1C2 (stereo unspecified) | inactive |
| CCCC(S)CCOC(C)=O (stereo unspecified) | active |
| O=C([O-])CCCCC(=O)[O-].[H+].[H+] | inactive |
| OCCc1ccccc1 | inactive |
| COc1cc(C(=O)O)ccc1O | inactive |
| CSSc1ccoc1C | inactive |
| CCCCCC1=C(C)CCC1=O | active |
| CCOC(C)=O | inactive |
| CC(=O)c1c(C)c([N+](=O)[O-])c(C(C)(C)C)c([N+](=O)[O-])c1C | inactive |
| CCOC(=O)CCSC | inactive |
| CCCCCCCC1CCC(=O)O1 (stereo unspecified) | inactive |
| CC(C)CC=O | inactive |
| O=C(O)CCc1ccccc1 | inactive |
| CCCCCCCCS | active |
| CCC=CCCC=CC=O | inactive |
| CCC=CCCC=O | inactive |
| CCCCCCCCC=CC=O | inactive |
| COC(=O)C(C)C | inactive |
| CCCCC(=O)O | inactive |
| COc1ccccc1 | inactive |
| C=C1CCC2CC1C2(C)C (stereo unspecified) | inactive |
| C=CC(=O)CC | inactive |
| COC(=O)Cc1ccccc1C | active |
| Cc1nccnc1C | inactive |
